test-method-notes: folding enthalpy; higher = less favourable; fluorescence melt of hairpins on a sequencing array, two-state fit
measurement-setup: sodium 0.088 M

{"seq": "GATCGATAGCTCGATC ((((((....))))))", "unit-tag": "kcal/mol", "folding enthalpy": -41.9}
{"seq": "GCTCTGCGAAAGCAGTGC ((.((((....)))).))", "unit-tag": "kcal/mol", "folding enthalpy": -16.7}
{"seq": "GCGAGCGCTCGC ((((....))))", "unit-tag": "kcal/mol", "folding enthalpy": -46.8}
{"seq": "GACAAGCCGAAAGGCGTC (((..(((....))))))", "unit-tag": "kcal/mol", "folding enthalpy": -9.16}
{"seq": "GCCCAGCGAAAGCGCGGC (((..((....))..)))", "unit-tag": "kcal/mol", "folding enthalpy": -22.1}
{"seq": "GATGATGGAAACATCACC (.(((((....))))).)", "unit-tag": "kcal/mol", "folding enthalpy": -16.3}
